- tgt: T1, recombinant cyno monkey PCSK9 protein (cyno monkey, UniProt A8T666 31-692 (rhesus entry), limits assumed, biotinylated in the ELISA assays)
- T1 construct: also called cyno PCSK9; Cyno Monkey PCSK9-His
- assay-summary: ELISA; antibody 0.67 nM
OD450 nm values by entry

Take a look at these entries with their results.
| binder | OD450 nm |
| --- | --- |
| 76A1B11, fully human anti-PCSK9 antibody (antibody, human IgG1, V domains shown) VH: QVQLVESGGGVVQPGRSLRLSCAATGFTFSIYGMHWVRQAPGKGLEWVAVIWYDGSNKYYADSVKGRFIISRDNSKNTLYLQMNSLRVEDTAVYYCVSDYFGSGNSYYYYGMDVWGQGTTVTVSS VL: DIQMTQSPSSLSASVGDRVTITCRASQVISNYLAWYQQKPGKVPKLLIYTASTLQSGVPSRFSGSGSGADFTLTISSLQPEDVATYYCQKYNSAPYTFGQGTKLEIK | 2.91 OD450 nm |
| 152G2F7, fully human anti-PCSK9 antibody (antibody, human IgG1, V domains shown) VH: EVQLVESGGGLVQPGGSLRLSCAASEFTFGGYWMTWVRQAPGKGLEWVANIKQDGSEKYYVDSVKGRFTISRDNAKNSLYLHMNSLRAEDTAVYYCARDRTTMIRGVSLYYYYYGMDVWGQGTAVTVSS VL: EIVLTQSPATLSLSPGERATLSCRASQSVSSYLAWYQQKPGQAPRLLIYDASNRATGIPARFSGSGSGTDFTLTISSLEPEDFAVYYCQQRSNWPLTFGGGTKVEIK | 1.56 OD450 nm |

Moving on to the next binder.
Any idea what OD450 nm was measured for 139G1C5, fully human anti-PCSK9 antibody (antibody, human IgG1, V domains shown) VH: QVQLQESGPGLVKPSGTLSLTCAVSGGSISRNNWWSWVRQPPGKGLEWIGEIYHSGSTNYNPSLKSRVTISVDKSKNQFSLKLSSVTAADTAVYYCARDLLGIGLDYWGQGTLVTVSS VL: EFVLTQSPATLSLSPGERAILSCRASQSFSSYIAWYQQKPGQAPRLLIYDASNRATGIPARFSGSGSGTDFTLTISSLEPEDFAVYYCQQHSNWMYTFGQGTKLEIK ?
3 OD450 nm
